Test: Quantitative High-Throughput drug screen in 47 multiple myeloma cell lines against the NCATS MIPE library collection: OPM2_DSMZ cell viability assay (AID 1919872); further: nearly all actives have a fitted effect of over 30% in size; further: potency means the concentration at half of the fitted maximal effect
Conditions: OPM2 myeloma viability, CellTiter-Glo ATP luminescence, 48 h; series mostly up to 45.8 µM
From the text: PI: Beverly A. Mock Ph.D. Laboratory of Cancer Biology and Genetics, Center for Cancer Research, National Cancer Institute, National Institute of Health, Bethesda, Maryland […] 5; Detector; 425V; Luminescence; Viewlux PerkinElmer. […] 1. […] Briefly, the corresponding myeloma cell lines were screened in 1,536-well plates with 500 cells, 5-uL per well for inhibition of cell viability (assessed by measuring ATP levels with CellTiterGlo). […]
Results filed as inconclusive are left out. Calls of active or inactive are those of the source. The call rests on the fitted dose curve; in most records, active means well fitted cell-killing curve with a large enough effect; inconclusive means small, poorly fitted or top-dose-only effect, or effect the other way; inactive means no such curve, though single readings can be large or run the other way.

molecule	Potency
O=C1C(Cl)=C(NCCN2CCOCC2)C(=O)c2ncccc21	7.43 µM (active)
COc1ccc(-c2oc3c(CC=C(C)C)c(OC4O[C@H](CO)[C@@H](O)[C@H](O)[C@@H]4O)cc(O)c3c(=O)c2OC2O[C@@H](C)[C@H](O)[C@@H](O)[C@@H]2O)cc1 (some centres undefined)	23.5 µM (active)
O=C1c2ccccc2-[n+]2ccc3c([nH]c4ccccc43)c21	2.64 µM (active)
O=c1c(-c2ccc(O)cc2)coc2cc(OC3O[C@H](CO)[C@H](O)[C@H](O)[C@H]3O)cc(O)c12 (some centres undefined)	inactive
CC(C)(C)NC(=O)Nc1cccc(Nc2ncc(F)c(NC(C)(C)CO)n2)c1	16.6 µM (active)
Cc1ccc(Nc2cc(-c3cccc(N4C(=O)c5ccccc5C4=O)c3)ncn2)cc1NS(C)(=O)=O	26.4 µM (active)
C=C1C(=O)OC2C=C(C)CCC=C(C)CCC12 (centres undefined)	20.9 µM (active)
COc1cc2nc(-c3ccc(N4CCN(C)CC4)cc3)nc(NCCN3CCOCC3)c2cc1OC	3.32 µM (active)
O=C(Nc1cc(Cl)cc2c1[nH]c1cnccc12)c1cccnc1	inactive

====

test: High-throughput drug toxicity screening in the BPDCN cell line Gen2.2 (AID 1224824); conditions: Gen2.2 BPDCN cells; at 45.8 µM (top of the series) unless noted;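 further: cells exposed to compounds for 48 h before reading; 100% = DMSO and 0% = bortezomib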
measure-name: cell viability, % of control (lower = more cytotoxic) (%)

compound	quantity-unit	experimental-value
Cc1cnc(C(=O)O)c[n+]1[O-]	%	174
CC(=O)N(C)C1(c2ccccc2)CCN(CCC[C@]2(c3ccc(Cl)c(Cl)c3)CCCN(C(=O)c3ccccc3)C2)CC1	%	9.34
CC(C)(C(=O)NCC(F)(F)C(F)(F)F)C(=O)N[C@@H]1C(=O)Nc2ccccc2-c2ccccc21	%	71.1
O=C(Nc1ccccc1-c1cn2c(CN3CCNCC3)csc2n1)c1cnc2ccccc2n1	%	2.56
CN(C)C1CCN(C(=O)c2ccc(NC(=O)Nc3nc(N4CCOCC4)nc(N4CCOCC4)n3)cc2)CC1	%	6.71
CC(C)(C)C(=O)Oc1ccc2c(c1)nc(NC(=O)c1cccc([N+](=O)[O-])c1)n2CCCO	%	190
COCCCCC(=NOCCN)c1ccc(C(F)(F)F)cc1	%	56
CC(=O)Nc1ccc([C@H](C)C(=O)Nc2ncc(C(C)C)s2)cc1	%	7.33
CC[C@]1(O)C[C@@H]2CN(CCc3c([nH]c4ccccc34)[C@@](C(=O)OC)(c3cc4c(cc3OC)N(C=O)[C@@H]3C45CCN4CC=C[C@](CC)([C@H]45)[C@@H](OC(C)=O)[C@]3(O)C(=O)OC)C2)C1 (stereo partly specified)	%	15
Clc1cc(Cl)cc(CNc2ncncc2-c2ccc3c(c2)OCO3)c1	%	44.1
CCCCCCCCCCCC1=C(O)C(=O)C=C(O)C1=O	%	52.7
O=c1c(-c2ccc(O)cc2)coc2cc(O)ccc12	%	119
NC(=O)c1cnc(-c2ccc(C3(N)CCC3)cc2)c(-c2ccccc2)c1	%	80.1
COCCOc1nc(-c2ccc(Cl)c(Cl)c2)n(-c2ccc(NC(=O)CCl)cc2)n1	%	114
O=c1c(O)c(-c2ccc(O)cc2)oc2cc(O)cc(O)c12	%	140
C[N+](C)(C)CC(=O)O	%	178
COc1ccc2c3c1OC1C[C@@H](O)C=C[C@@]31CCN(C)C2 (stereo partly specified)	%	113
O=C(O)c1ccc(-c2c[nH]c3ncc(-c4ccccc4)cc23)cc1C1CCCC1	%	116
CCOc1ccc(Nc2nc(-c3c(C)nc4ccccn34)cs2)cc1	%	11
Cc1cccc(Nc2nc(-c3ccncc3)cs2)c1	%	75.6
N[C@H](CSC(c1ccccc1)(c1ccccc1)c1ccccc1)C(=O)O	%	68.6

====

Test: Quantitative High-Throughput drug screen in 47 multiple myeloma cell lines against the NCATS MIPE library collection: KMS12BM_JCRB cell viability assay (AID 1918971); further: nearly all actives have a fitted effect of over 35% in size
Conditions: KMS12BM myeloma viability, CellTiter-Glo ATP, 48 h; series mostly up to 45.8 µM
From the text: PI: Beverly A. Mock Ph.D. Laboratory of Cancer Biology and Genetics, Center for Cancer Research, National Cancer Institute, National Institute of Health, Bethesda, Maryland […] 5; Detector; 425V; Luminescence; Viewlux PerkinElmer. […] 1. […] Briefly, the corresponding myeloma cell lines were screened in 1,536-well plates with 500 cells, 5-uL per well for inhibition of cell viability (assessed by measuring ATP levels with CellTiterGlo). […]
Inconclusive results are not listed. Active and inactive are the calls of the source. The call rests on the fitted dose curve; in most records, active means well fitted cell-killing curve with a large enough effect; inconclusive means small, poorly fitted or top-dose-only effect, or effect the other way; inactive means no such curve, though single readings can be large or run the other way.
Outcomes: true (1) for active, false (0) for inactive

compound	group-label
NS(=O)(=O)c1ccc(NC2=CC(=O)c3ccccc3C2=O)cc1	false (0)
Cc1c(O)cccc1C(=O)N[C@@H](CSc1ccccc1)[C@H](O)CN1C[C@H]2CCCC[C@@H]2C[C@@H]1C(=O)NC(C)(C)C	true (1)
COc1cc(O)c2c(c1)C(=O)c1cc(C)cc(O)c1C2=O	false (0)
O=C1C(Cl)=C(NCCN2CCOCC2)C(=O)c2ncccc21	true (1)
CC=CC[C@@H](C)C(=O)[C@H]1C(=O)N[C@@H](C(C)C)C(=O)N(C)CC(=O)N(C)[C@@H](CC(C)C)C(=O)N[C@@H](C(C)C)C(=O)N(C)[C@@H](CC(C)C)C(=O)N[C@@H](C)C(=O)N[C@H](C)C(=O)N(C)[C@@H](CC(C)C)C(=O)N(C)[C@@H](CC(C)C)C(=O)N(C)[C@@H](C(C)C)C(=O)N1C	true (1)
COc1cc(N2CCC(N3CCN(C)CC3)CC2)ccc1Nc1ncnc(Nc2ccccc2S(=O)(=O)C(C)C)n1	true (1)
CC(=O)N(C)C1(c2ccccc2)CCN(CCC[C@]2(c3ccc(Cl)c(Cl)c3)CCCN(C(=O)c3ccccc3)C2)CC1	true (1)
CC[C@]1(O)C[C@@H]2CN(CCc3c([nH]c4ccccc34)[C@@](C(=O)OC)(c3cc4c(cc3OC)N(C=O)[C@@H]3C45CCN4CC=C[C@](CC)([C@H]45)[C@@H](OC(C)=O)[C@]3(O)C(=O)OC)C2)C1 (stereo not given in full)	true (1)
Nc1ncnc2c1ncn2[C@@H]1O[C@@H](CO)[C@H](O)[C@H]1O	false (0)
CC=CC(=O)N(CC)c1ccccc1C	false (0)
O=C(Nc1cc(Cl)cc2c1[nH]c1cnccc12)c1cccnc1	true (1)
O=c1ccn([C@@H]2O[C@H](CO)[C@H](O)[C@H]2O)c(=O)[nH]1	true (1)
Nc1ncnc2c1ncn2[C@@H]1O[C@H](CO)C[C@@H]1O	true (1)
COc1cccc2c1CCCC2CCCN1CCN(C2CCCCC2)CC1 (stereo not given)	true (1)
CN[C@@H](C)C(=O)N[C@H]1CN(C(=O)CC(C)C)CC[C@H]2CC[C@@H](C(=O)NC(c3ccccc3)c3ccccc3)N2C1=O	true (1)
COc1cc2nc(-c3ccc(N4CCN(C)CC4)cc3)nc(NCCN3CCOCC3)c2cc1OC	true (1)
CCC(=O)NC[C@H](Cc1ccc(OCCc2nc(-c3ccccc3)oc2C)cc1)NC(C)=CC(=O)c1ccc(C(F)(F)F)cc1	true (1)
COc1ccc(-c2coc3cc(O)cc(O)c3c2=O)cc1	false (0)
Oc1ccc(C2=Cc3ccc(O)cc3OC2)cc1	true (1)
CCCCCNC(=O)N1CCC(CN(Cc2ccc(Cl)cc2)Cc2ccc([N+](=O)[O-])s2)C1 (stereo not given)	true (1)
O=C1NC(=O)C(=Cc2cccc(C(F)(F)F)c2)S1	true (1)
CC[C@H]1OC(=O)[C@H](C)C(=O)[C@H](C)[C@@H](O[C@H]2O[C@H](C)C[C@H](N(C)C)[C@@H]2O)[C@](C)(OC)C[C@@H](C)C(=O)[C@H](C)[C@H]2N(CCCCn3cnc(-c4cccnc4)c3)C(=O)O[C@]12C	true (1)
O=C(CCN1CCN(C(=O)OCc2cc(Cl)cc(Cl)c2)CC1)c1ccc2[nH]c(=O)oc2c1	false (0)
O=c1c(-c2ccc(O)cc2)coc2cc(O[C@@H]3O[C@H](CO)[C@H](O)[C@H](O)[C@H]3O)ccc12	false (0)
O=C(O)C=Cc1ccc(O)c(O)c1	true (1)
COC[C@@H](c1ccc(C(F)(F)F)cc1)N1CCN(C2(C)CCN(C(=O)c3c(C)ncnc3C)CC2)C[C@H]1C	false (0)
CC(=Cc1ccccc1)C=C1SC(=S)N(CC(=O)O)C1=O	false (0)
O=c1cc(-c2ccc(O)cc2)oc2cc(O)cc(O)c12	true (1)
O=C1c2ccccc2-[n+]2ccc3c([nH]c4ccccc43)c21	true (1)
O=C(Nc1ccccc1-c1cn2c(CN3CCNCC3)csc2n1)c1cnc2ccccc2n1	true (1)
COc1ccc2c(Oc3ccc(NC(=O)c4c(C)n(CC(C)(C)O)n(-c5ccccc5)c4=O)cc3F)ccnc2c1	true (1)
CC(C)C(=O)Oc1ccc(CO)cc1[C@H](CCN(C(C)C)C(C)C)c1ccccc1	true (1)
CCN(CC)CCOc1ccc(C(=C(Cl)c2ccccc2)c2ccccc2)cc1	false (0)
OC[C@H]1O[C@@H](Oc2cc(O)cc(C=Cc3ccc(O)cc3)c2)[C@H](O)[C@@H](O)[C@H]1O	false (0)
CC(=NNC(=S)N1CCC1)c1ccccn1	true (1)
